Reference for the values: PubChem BioAssay (NCI)

Collected TGI values appear next to each entry.
- Test system: UACC-257 melanoma
- ASSAY_EXPLANATION: NCI tumour cell line growth inhibition, 48 h
MEASUREMENT_KIND: TGI

{"MOLECULE": "CC(C)N(C[C@H]1O[C@@H](n2cnc3c(N)ncnc32)[C@H](O)[C@@H]1O)C1CC(CCc2nc3ccc(C(C)(C)C)cc3[nH]2)C1 (stereo partly drawn)", "EXPERIMENTAL_VALUE": "> 100 µM"}
{"MOLECULE": "CCCCCn1cnc2c1S(=O)(=O)N(C)C(NC(=O)c1ccccc1)=N2", "EXPERIMENTAL_VALUE": "> 100 µM"}
{"MOLECULE": "CC(C)(C)OC(=O)N/N=C(/N)c1ccccc1", "EXPERIMENTAL_VALUE": "> 100 µM"}
